Reference source for all entries: ChEMBL document CHEMBL1201862

test system: HOP-62; test: NCI tumour cell line growth inhibition, 48 h
Calls of active or inactive are those of the source. No stated cut-off is given here; in the data, active = GI50 up to about 1.1 µM and inactive = higher.
metric.name: GI50

Here are 5 compounds together with their reported answers.
{"columns": ["compound", "GI50"],
 "data": [
  ["Cc1nc2cc(Cl)c(N)cc2[nH]1", "> 100 µM (inactive)"],
  ["Cc1nn2c3c(nnc2c1C#N)C(=O)NN=C(N)S3", "> 100 µM (inactive)"],
  ["COc1cccc(C2SCC(=O)N2c2ccc(-c3ccc(-n4c(-c5ccccc5)nc5ccccc5c4=O)cc3)cc2)c1OC (configuration not stated)", "> 100 µM (inactive)"],
  ["CC(=O)CC(=O)N1CCOC1=O", "> 10 µM (inactive)"],
  ["Brc1ccc2[nH]cc(-c3csc(-c4c[nH]c5ccc(Br)cc45)n3)c2c1", "3.25 µM (inactive)"]
]}

Query: # get_value(readout= GI50, system= HOP-62) for CCOc1ccc(/N=N/S(=O)(=O)O)cc1
Result: > 100 µM (inactive)

Query: Repeat for the following compound: O=C1NC(c2ccccc2Cl)Nc2ccccc21 (configuration not stated)
Result: 35.4 µM (inactive)
